Reference source for all entries: ChEMBL document CHEMBL1133516

For each of the molecules below, state its pEC50.
ASSAYED_SYSTEM: Glutamate receptor 4 (Homo sapiens)
Sequence (P48058 whole entry): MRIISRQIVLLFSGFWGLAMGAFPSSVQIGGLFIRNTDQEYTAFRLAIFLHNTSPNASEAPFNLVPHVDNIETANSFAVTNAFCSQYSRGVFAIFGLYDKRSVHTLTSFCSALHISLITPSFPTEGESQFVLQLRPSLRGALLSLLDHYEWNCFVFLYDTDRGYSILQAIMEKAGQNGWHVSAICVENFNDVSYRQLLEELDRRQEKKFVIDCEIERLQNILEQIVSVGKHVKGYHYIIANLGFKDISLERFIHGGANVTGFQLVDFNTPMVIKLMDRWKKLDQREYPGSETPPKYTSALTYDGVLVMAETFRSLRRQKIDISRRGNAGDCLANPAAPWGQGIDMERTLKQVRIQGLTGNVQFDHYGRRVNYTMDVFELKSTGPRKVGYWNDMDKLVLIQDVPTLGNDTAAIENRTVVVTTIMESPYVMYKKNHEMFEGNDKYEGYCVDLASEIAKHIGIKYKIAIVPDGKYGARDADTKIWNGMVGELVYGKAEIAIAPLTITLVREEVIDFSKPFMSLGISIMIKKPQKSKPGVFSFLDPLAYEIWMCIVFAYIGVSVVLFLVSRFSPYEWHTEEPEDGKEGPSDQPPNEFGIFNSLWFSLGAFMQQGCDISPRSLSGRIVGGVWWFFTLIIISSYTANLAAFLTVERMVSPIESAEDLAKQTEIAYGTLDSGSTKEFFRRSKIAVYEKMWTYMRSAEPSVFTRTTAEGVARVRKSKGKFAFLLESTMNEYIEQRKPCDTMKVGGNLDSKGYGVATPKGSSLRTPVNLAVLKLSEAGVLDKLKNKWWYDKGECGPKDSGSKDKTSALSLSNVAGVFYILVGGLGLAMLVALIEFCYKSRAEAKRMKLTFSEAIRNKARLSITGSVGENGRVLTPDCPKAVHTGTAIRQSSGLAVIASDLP
TEST_DETAILS: Tested for potentiation towards human iGluR4 receptor expressed in HEK293 cells
# pEC50: negative log10 of molar concentration; output just the value

Documented pEC50 of CC(CNS(=O)(=O)C(C)C)c1ccc(-c2ccccc2)cc1 (stereo not given) : 6.00

Documented pEC50 of CC(CNS(=O)(=O)C(C)C)c1ccc(-c2ccc(C(=O)O)cc2)cc1 (stereo not given) : 5.85

Documented pEC50 of "CC(C)S(=O)(=O)NCCc1ccc(C(C)(C)C)cc1" : 4.89
